# Tested on: MCF-7 (estrogen receptor (ER) positive) human breast cancer cells
# PROCEDURE SUMMARY: MTS antiproliferative/cytotoxicity assay on MCF-7 cells
# ASSAY CONTEXT: read-out: IC50 MCF-7 72 h; 72 h; combination study Table 5A
pIC50: −log10 of the molar value.

MOLECULE	MEASURED TARGET	pIC50
COc1cc(C(CO)C(c2ccc(O)c(OC)c2)c2ccc(O)c(OC)c2)ccc1O (stereo not shown)	MCF-7 (estrogen receptor (ER) positive) human breast cancer cells	3.96

###

# Test system: MDA-MB-231 (ER negative) human breast cancer cells
# PROCEDURE SUMMARY: MTS antiproliferative/cytotoxicity assay on MDA-MB-231 cells
# Type: cell-based
# ASSAY CONTEXT: 96 h; read-out: IC50 MDA-MB-231 96 h
pIC50: −log10 of the molar value.

MOLECULE	pIC50
COc1cc(C(CO)C(c2ccc(O)c(OC)c2)c2ccc(O)c(OC)c2)ccc1O (centres unmarked) [QUEBECOL SYNTHETIC]	3.99
COc1ccc(C(O)(c2ccc(OC)c(F)c2)c2ccc(OC)c(F)c2)cc1F	4.41
